Test Target: Full-length human MNK1 (Homo sapiens, UniProt Q9BUB5, T385D)
Construct: GST (N); purchased Carna Biosciences 02-145; host or cells: baculovirus expression system
Sequence (Q9BUB5 1-424 isoform Q9BUB5-2 T344D): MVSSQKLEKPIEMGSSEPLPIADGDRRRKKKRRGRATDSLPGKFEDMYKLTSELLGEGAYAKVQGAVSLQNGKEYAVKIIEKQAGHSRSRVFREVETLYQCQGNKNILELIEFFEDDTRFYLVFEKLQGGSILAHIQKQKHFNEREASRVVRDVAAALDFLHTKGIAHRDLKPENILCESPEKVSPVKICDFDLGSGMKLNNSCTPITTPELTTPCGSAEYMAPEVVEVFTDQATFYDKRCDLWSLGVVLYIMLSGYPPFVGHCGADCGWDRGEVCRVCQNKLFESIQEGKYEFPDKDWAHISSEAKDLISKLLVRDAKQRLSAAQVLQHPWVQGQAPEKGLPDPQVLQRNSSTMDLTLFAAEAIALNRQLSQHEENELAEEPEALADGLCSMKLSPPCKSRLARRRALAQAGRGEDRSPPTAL
Protocol: MNK1 biochemical IC50 assay (Caliper Mobility Shift Assay)
Measurement Context: read-out: P(IC50) MNK1 (converted)
Measured IC50 by item
Write down the numeric answer in nM and omit the unit.

For orientation, consider the following solved cases.
{"Molecule": "CN1CCN(c2nc3c(N4CCc5cc(F)ccc54)ncnc3s2)CC1", "IC50, nM": 79.4}
{"Molecule": "O=C(NCC1CCNCC1)c1nc2c(Nc3ccc(F)cc3OC(CF)CF)ncnc2s1", "IC50, nM": 63.1}
{"Molecule": "O=C(NC1CCOCC1)c1nc2c(N3CC(CCN4CCCC4)c4cc(F)ccc43)ncnc2s1 (stereo not shown)", "IC50, nM": 31.6}

Need IC50 of O=C(NCC1CCNCC1)c1nc2c(Nc3ccc(F)cc3O[C@H]3CCOC3)ncnc2s1 , thanks.
79.4

* * *

Test Target: Full-length human MNK2 (Homo sapiens, UniProt Q9HBH9, T379D)
Construct: GST (N); purchased Carna Biosciences 02-146; host or cells: baculovirus expression system
Sequence (Q9HBH9 whole entry T379D): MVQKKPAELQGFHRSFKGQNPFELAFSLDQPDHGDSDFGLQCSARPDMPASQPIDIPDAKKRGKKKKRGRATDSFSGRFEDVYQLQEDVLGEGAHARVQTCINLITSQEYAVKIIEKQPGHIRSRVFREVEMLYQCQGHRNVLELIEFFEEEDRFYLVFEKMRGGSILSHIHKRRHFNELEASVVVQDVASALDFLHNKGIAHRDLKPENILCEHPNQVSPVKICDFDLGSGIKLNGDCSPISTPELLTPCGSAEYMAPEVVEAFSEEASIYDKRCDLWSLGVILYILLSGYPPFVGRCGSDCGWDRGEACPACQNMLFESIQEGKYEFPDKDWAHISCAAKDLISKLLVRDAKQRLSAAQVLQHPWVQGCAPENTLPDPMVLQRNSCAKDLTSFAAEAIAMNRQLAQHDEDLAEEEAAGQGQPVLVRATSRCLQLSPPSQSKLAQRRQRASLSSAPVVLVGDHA
Protocol: MNK2 biochemical IC50 assay (Caliper Mobility Shift Assay)
Measurement Context: read-out: P(IC50) MNK2 (converted)
Measured IC50 by item
Write down the numeric answer in nM and omit the unit.

For orientation, consider the following solved cases.
{"Compound": "C[C@H]1Cc2ccccc2N1c1ncnc2sc(C(=O)NC3CCOCC3)nc12 [Example 133]", "Quantity Unit": "nM", "Measured Number": 39.8}
{"Compound": "CC(C)Oc1cc(F)ccc1Nc1ncnc2sc(C(=O)NC3CCN(C)CC3)nc12 [Example 32]", "Quantity Unit": "nM", "Measured Number": 39.8}
{"Compound": "CNCC1CN(c2ncnc3sc(C(=O)NC4CCOCC4)nc23)c2ccccc21 (stereo not drawn) [Example 120]", "Quantity Unit": "nM", "Measured Number": 31.6}

Need IC50 of CC(C)Oc1cc(F)ccc1Nc1ncnc2sc(C(=O)NC3CC4CCC(C3)N4C(=O)OC(C)(C)C)nc12 (stereo not drawn) [Example 6] , thanks.
398

* * *

Test Target: Full-length human MNK2 (Homo sapiens, UniProt Q9HBH9, T379D)
Construct: GST (N); purchased Carna Biosciences 02-146; host or cells: baculovirus expression system
Protocol: MNK2 biochemical IC50 assay (Caliper Mobility Shift Assay)
Measurement Context: read-out: P(IC50) MNK2 (converted)
Measured Attribute: IC50 (nM)
Write down the numeric answer in nM and omit the unit.

For orientation, consider the following solved cases.
{"Compound": "O=C(NCCN1CCNCC1)c1nc2c(N3CCc4cc(F)ccc43)ncnc2s1 [Example 79]", "Quantity Unit": "nM", "IC50": 3.16}
{"Compound": "O=C(NC1CCOCC1)c1nc2c(N3CCc4cc(F)ccc43)ncnc2s1 [Example 66]", "Quantity Unit": "nM", "IC50": 3.98}
{"Compound": "O=C(NC1COC1)c1nc2c(N3CCc4cc(F)ccc43)ncnc2s1 [Example 76]", "Quantity Unit": "nM", "IC50": 3.16}
{"Compound": "CC1(C)CN(c2ncnc3sc(C(=O)NCCCN4CCCC4)nc23)c2ccccc21 [Example 160]", "Quantity Unit": "nM", "IC50": 6.31}

// fetch Full-length human MNK2 (Homo sapiens, UniProt Q9HBH9, T379D) IC50 for O=C(NCC1CCOCC1)c1nc2c(N3CCc4ccccc43)ncnc2s1 [Example 103]
10

* * *

Test Target: Full-length human MNK1 (Homo sapiens, UniProt Q9BUB5, T385D)
Construct: GST (N); purchased Carna Biosciences 02-145; host or cells: baculovirus expression system
Protocol: MNK1 biochemical IC50 assay (Caliper Mobility Shift Assay)
Measurement Context: read-out: P(IC50) MNK1 (converted)
Measured Attribute: log10(IC50) (log10 of the value in nM)
Lab note - IC50 converted to log10 from values in nM.

Need log10(IC50) of CC1CN(c2ncnc3sc(C(=O)NC4CCN(C)CC4)nc23)c2ccccc21 (stereo not drawn) [Example 126] , thanks.
0.60

Need log10(IC50) of CN1CCN(C(=O)c2nc3c(N4CCc5cc(F)ccc54)ncnc3s2)CC1 [Example 65] , thanks.
1.90

Need log10(IC50) of O=C(NC1CCOCC1)c1nc2c(N3CC(CCO)c4ccccc43)ncnc2s1 (stereo not drawn) [Example 110] , thanks.
1.00

Need log10(IC50) of COCCCNC(=O)c1nc2c(N3CC(CCN)c4ccccc43)ncnc2s1 (stereo not drawn) [Example 166] , thanks.
0.70

Need log10(IC50) of CC(C)Oc1cc(F)ccc1Nc1ncnc2sc(C(=O)NCC3CCN(C)CC3)nc12 [Example 36] , thanks.
1.70

Need log10(IC50) of CCOc1cc(F)ccc1Nc1ncnc2sc(C(=O)NCC3CCNCC3)nc12 [Example 53] , thanks.
2.00

* * *

Test Target: Full-length human MNK1 (Homo sapiens, UniProt Q9BUB5, T385D)
Construct: GST (N); purchased Carna Biosciences 02-145; host or cells: baculovirus expression system
Protocol: MNK1 biochemical IC50 assay (Caliper Mobility Shift Assay)
Measurement Context: read-out: P(IC50) MNK1 (converted)
Measured IC50 by item

For orientation, consider the following solved cases.
{"Compound": "CC(C)Oc1cc(F)ccc1Nc1ncnc2sc(C(=O)N3CCC(CCO)CC3)nc12", "Test Target": "Full-length human MNK1 (Homo sapiens, UniProt Q9BUB5, T385D)", "IC50": "0.398 µM"}
{"Compound": "O=C(NCC1CCNCC1)c1nc2c(N3CCc4ccccc43)ncnc2s1", "Test Target": "Full-length human MNK1 (Homo sapiens, UniProt Q9BUB5, T385D)", "IC50": "0.00631 µM"}
{"Compound": "CC(C)Oc1cc(F)ccc1Nc1ncnc2sc(C(=O)NCCCN3CCCC3)nc12", "Test Target": "Full-length human MNK1 (Homo sapiens, UniProt Q9BUB5, T385D)", "IC50": "0.0501 µM"}
{"Compound": "O=C(NCC1CCNCC1)c1nc2c(N3CC(CCO)c4ccccc43)ncnc2s1 (stereo not drawn)", "Test Target": "Full-length human MNK1 (Homo sapiens, UniProt Q9BUB5, T385D)", "IC50": "0.00794 µM"}

Need IC50 of CC(C)[C@@H](CO)NC(=O)c1nc2c(N3CCc4ccccc43)ncnc2s1 , thanks.
0.01 µM

Need IC50 of O=C(NCC1CCNCC1)c1nc2c(N3CCc4cc(Br)ccc43)ncnc2s1 , thanks.
0.00794 µM

Need IC50 of CC(C)Oc1cc(F)ccc1Nc1ncnc2sc(C(=O)NCCN(C)C)nc12 , thanks.
0.158 µM

Need IC50 of CC(C)Oc1cc(F)ccc1Nc1ncnc2sc(CO)nc12 , thanks.
0.0631 µM

Need IC50 of O=C(NC1CCOCC1)c1nc2c(N3CCc4cc(F)ccc43)ncnc2s1 , thanks.
0.00501 µM

* * *

Measured IC50 by item
Test Target: Full-length human MNK2 (Homo sapiens, UniProt Q9HBH9, T379D)
Construct: GST (N); purchased Carna Biosciences 02-146; host or cells: baculovirus expression system
Protocol: MNK2 biochemical IC50 assay (Caliper Mobility Shift Assay)
Measurement Context: read-out: P(IC50) MNK2 (converted)
Express your answer as a number followed by its unit.

{"Compound": "O=C(NCC(O)CO)c1nc2c(N3CCc4ccccc43)ncnc2s1 (stereo not drawn)", "Result": "0.0126 µM"}
{"Compound": "O=C(NC1CCOC1)c1nc2c(N3CCc4cc(F)ccc43)ncnc2s1 (stereo not drawn)", "Result": "0.002 µM"}
{"Compound": "CC(C)Oc1cc(F)ccc1Nc1ncnc2scnc12", "Result": "0.2 µM"}

Need IC50 of OCc1nc2c(N3CCc4cc(F)ccc43)ncnc2s1 , thanks.
0.02 µM

Need IC50 of CN(C)CCC1CN(c2ncnc3sc(C(=O)NC4CCOCC4)nc23)c2ccccc21 (stereo not drawn) , thanks.
0.0794 µM

Need IC50 of O=C(Nc1ccc(Nc2ncnc3sc(C(=O)NCC4CCNCC4)nc23)cc1)Nc1cccc(C(F)(F)F)c1 , thanks.
0.0631 µM

Need IC50 of CC1(C)CN(C(=O)c2nc3c(N4CCc5ccccc54)ncnc3s2)CCO1 , thanks.
0.2 µM

Need IC50 of CNC(=O)c1nc2c(N3CCc4cc(C(F)(F)F)ccc43)ncnc2s1 , thanks.
0.126 µM

Need IC50 of CC(C)Oc1cc(F)ccc1Nc1ncnc2sc(C(=O)NC3CCS(=O)(=O)CC3)nc12 , thanks.
0.158 µM

* * *

Measured log10 of IC50 by item
System: phosphorylation of eIF4E at ser209 in MV4.11 cell line
Protocol: MNK cellular activity phospho-eIF4E detection assay (Alphascreen Surefire)
Format: cell-based
Measurement Context: Homo sapiens; MV4.11 cell line, phospho-eIF4E (ser209) Alphascreen Surefire; read-out: P(IC50) elF4E (converted)
Method: The assay detection is based on the formation of sandwich antibody complexes coupled to donor and acceptor beads. […] Cells were then lysed and the Alphascreen Surefire protocol followed according to manufacturer's recommendations. […] 3 ul Donor beads (1:20 dilution in kit dilution buffer) were then added, shaken 150 rpm for 2 min and incubated for a further 1.5 hr at room temperature after which the plates were read on Pherastar FS using Alphascreen optic module. […]
Lab note - IC50 converted to log10 from values in nM.

For orientation, consider the following solved cases.
{"Molecule": "O=C(NC1CCOCC1)c1nc2c(N3CC(CCN4CCCC4)c4ccccc43)ncnc2s1 (stereo not drawn) [Example 153]", "Measured Number": 2.00}
{"Molecule": "O=C(NCCCn1cccn1)c1nc2c(N3CCc4cc(F)ccc43)ncnc2s1 [Example 75]", "Measured Number": 1.20}

Need log10 of IC50 of CC1(CCO)CN(c2ncnc3sc(C(=O)NCC4CCNCC4)nc23)c2ccccc21 (stereo not drawn) [Example 144] , thanks.
1.30

Need log10 of IC50 of CN1CCN(c2ncnc3sc(C(=O)NCC4CCNCC4)nc23)c2ccc(F)cc21 [Example 57] , thanks.
2.40

Need log10 of IC50 of CC(=O)Nc1ccc2c(c1)CCN2c1ncnc2sc(C(=O)NC3CCN(C)CC3)nc12 [Example 46] , thanks.
2.00

Need log10 of IC50 of CN1CCC(CNC(=O)c2nc3c(N4CCc5cccc(F)c54)ncnc3s2)CC1 [Example 93] , thanks.
2.40

Need log10 of IC50 of CN(C)CCCNC(=O)c1nc2c(Nc3ccc(F)cc3O[C@H]3CCCOC3)ncnc2s1 [Example 17] , thanks.
2.00

Need log10 of IC50 of O=C(NC1CCNCC1)c1nc2c(N3CCc4ccccc43)ncnc2s1 [Example 98] , thanks.
0.60

Need log10 of IC50 of CN(C)CCCOc1nc2c(N3CCc4cc(F)ccc43)ncnc2s1 [Example 89] , thanks.
2.30

Need log10 of IC50 of CN1CCN(c2nc3c(N4CCc5cc(F)ccc54)ncnc3s2)CC1 [Example 88] , thanks.
2.40

Need log10 of IC50 of CN(C)CCCNC(=O)c1nc2c(Nc3ccc(F)cc3O[C@@H]3CCCOC3)ncnc2s1 [Example 16] , thanks.
2.20

Need log10 of IC50 of CNCCCNC(=O)c1nc2c(N3c4ccccc4C[C@H]3C)ncnc2s1 [Example 128] , thanks.
1.90
